- test_system: human IRAK4 FL (Full Length) (Homo sapiens (Human))
- Sequence (Q9NWZ3 whole entry): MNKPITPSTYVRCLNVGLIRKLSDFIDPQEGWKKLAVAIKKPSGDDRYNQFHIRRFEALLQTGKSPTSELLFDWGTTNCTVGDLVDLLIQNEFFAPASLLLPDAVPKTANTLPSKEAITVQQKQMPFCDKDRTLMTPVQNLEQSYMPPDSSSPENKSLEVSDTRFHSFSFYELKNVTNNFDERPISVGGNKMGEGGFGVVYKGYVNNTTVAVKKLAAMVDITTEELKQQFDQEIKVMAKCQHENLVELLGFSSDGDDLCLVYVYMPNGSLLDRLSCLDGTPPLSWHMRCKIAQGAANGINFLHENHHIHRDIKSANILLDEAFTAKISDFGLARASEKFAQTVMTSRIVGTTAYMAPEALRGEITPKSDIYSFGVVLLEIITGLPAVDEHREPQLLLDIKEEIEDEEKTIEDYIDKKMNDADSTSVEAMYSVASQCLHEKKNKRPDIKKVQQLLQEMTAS
- test_method_notes: IRAK4 Enzymatic DELFIA Assay, Protocol A
- Assay type: biochemical
- measurement_context: human IRAK4 FL, 0.6 mM ATP (KM); read-out: IRAK4 DELFIA Protocol A IC50
Could you please report measured pIC50 for the items listed next?
One number for each entry, as −log10 of the molar value.

CC(C)Oc1cc2c(OC[C@@H]3C[C@H](C(C)(C)O)C(=O)N3)nccc2cc1C(N)=O    7.01
CC(C)Oc1cc2c(OC[C@@H]3CCC(=O)N3)nccc2cc1C(=O)O    6.05
COc1cc2c(OC[C@H]3NC(=O)[C@H]4C3[C@H]4F)nccc2cc1C(N)=O (stereo in doubt)    8.38

Hey, can you go through the list below and give me pIC50 for every item?
1. CC(C)Oc1cc2c(OC[C@H]3NC(=O)C[C@@H]3CO)nccc2cc1C(N)=O
2. CCC[C@@H]1CC(=O)N[C@@H]1COc1nccc2cc(C(N)=O)c(OC)cc12
3. CC(C)Oc1cc2c(OCC3CCS(=O)(=O)N3)nccc2cc1C(N)=O (centres unmarked)
4. CC(C)Oc1cc2c(OC[C@@H]3C[C@H](CO)C(=O)N3)nccc2cc1C(N)=O
5. COC[C@@H]1CC(=O)N[C@@H]1COc1nccc2cc(C(N)=O)c(OC)cc12

1: 6.82; 2: 8.89; 3: 5.59; 4: 6.27; 5: 7.92
